The measurements presented in this section are drawn from the RNAGym collection of RNA variant scans (doi:10.1126/science.aae0568).

B1: tRNA (parent)
chain: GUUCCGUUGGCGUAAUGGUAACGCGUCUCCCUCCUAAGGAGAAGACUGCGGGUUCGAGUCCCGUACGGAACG

# Variants of: B1
# TEST_DESCRIPTION: yeast fitness relative to wild type (ratio to wild type); higher = fitter; tRNA-Arg(CCU), competitive growth, 37 C, YPD
Fewer inactive variants are shown than the library holds.
MEASURED_PROPERTY: yeast fitness

SEQUENCE_STRING | yeast fitness
GUCCCGUUGGCGUAAUGGUAACGUGUCUCCCUCCUAAGGAGAAGACUGCGGGUUCAAGUCCCGUACGGAACG [U3C C24U G56A] | 0.757
GCUCCGUUGGCGUAAUGGUAACGCGUCUCCGUCCUAAGGAGAAGACUGCGGGUUCGACUCCCGUACCGAACG [U2C C31G G58C G67C] | 0.53
GUUCAGUUGGCGUAAUGGUAACGCGUCUCCCUCCUAAGGAGAAGACUGCGGGUUCGAGUCCCGUCCGCAACG [C5A A65C G68C] | ≤ 0.5
GUUCCGGUGGCGUAAUGGUAACGCGUUUCCCUCCUAAGGAGAAGACUGCGGGUUCGCGUCCCGUACGGAUCG [U7G C27U A57C A70U] | ≤ 0.5
GUUCCGUUGGCGUAAUGCUAACGCGUCUCCCUCCUAAGGAGAAGCCUGCGGAUUCGAGUCCCGUCCGGAACG [G18C A45C G52A A65C] | ≤ 0.5
GUUCAGUUGGCGUACUGGUAACGCGUCUACCUCCUAAGGAGCAGGCUGCGGGUUCGAGUCCCGUACGGAACG [C5A A15C C29A A42C A45G] | 0.551
GUUGCGUUGGCGUAAUGGUAACGCGUCUCCCUCCUAAGGCGAAGACUGCGGGUUCGAGUCCCGUACGCAACG [C4G A40C G68C] | ≤ 0.5
GUUCCGUUGGCGUAAUGGUAACGCGUCUCCAUCCUAAGGAGACGACUGCGGGUUCGAGUCCCGUACGGAACG [C31A A43C] | 0.832
GUUCCGUUGGCGUAAUGGUAAGGCGUCUCCCUCCUAAGGAGAAGCCUGCGGGUUCGUGUCCAGUACGGAACG [C22G A45C A57U C62A] | 0.716
GAUCCCCUGGCAUAAUGGUAACGCGUCUCACUCCUAAGGAGAAAACUGCGGGUUCGAGUCCCGUAAGGAACG [U2A G6C U7C G12A C30A G44A C66A] | ≤ 0.5

Would you be so kind as to report yeast fitness for each listed record?
1. GUUACGUUGGCGUCAUGGUAACGCGUCUCCCUCCUAAGGAAAAGACUCCGGGUUAGAGUCCCGUCCGGAACG [C4A A14C G41A G48C C55A A65C]
2. GUCCCGCUGGCGUAAUGGUAACGCGUCUCCCUCCUAAGGAACAGACUGCCGGUUCGAGUCCCGUACGGAGCG [U3C U7C G41A A42C G50C A70G]
3. GUUCCGUUGGCGUAAUGGUAACGCGUCUGCCUCCUAAGGAGAAGACUGCGGGUUCGAGUCCCGCACGGAACG [C29G U64C]
4. GUUCCGUUGGCGUAAUGGUAACGGGUCUCCCUCCUAAGGCGAAGACUGCGGGUUCGAGUCCCGUACGGAACG [C24G A40C]
5. GUUCCGGUGGCGUAAUGGUAACGCGUCUCCCUGCUAAGGAGAAGACUCCGGGUUCGAGUCCCGCACGGAACG [U7G C33G G48C U64C]
6. GCUCCCUUGGCGUAAUGGUAACGCAUCUCCCUCCUCAGGAGAAGACUGCGGGUUCGAGUCCCGUACGGAACG [U2C G6C G25A A36C]
7. GUUCCGUUGGCGUAAUAGUAACGCGUCUCCCUGCUAAGGAGAAGACUGCGGGUUCGAGUCCCGUAUGGAACG [G17A C33G C66U]
8. GUUACGUUGGCGUAAUGGUAACGCGUCUCCCUCCUAAGGAGAAGACUGCGGGUUCGAGUCCCGUACGGACCG [C4A A70C]

[0.556, "≤ 0.5", 0.688, 0.601, 0.531, "≤ 0.5", "≤ 0.5", 0.993]

For each of the items listed, what is its yeast fitness?
1. GUUCCGUUGGCGUAAUGGUAACGAGUCUCCCUCCUAAGGAGAAGACUACGGGGUCGAGUCCCGUACGGAACG [C24A G48A U53G]
2. GUUCCGUUGGCGUAAUCGUAAAGCGUCCCCCUCCUAAGGGGAAGCCUGCGGGUUCGAGUCCCGUAGGGUACG [G17C C22A U28C A40G A45C C66G A69U]
3. GUUCCGUUGGCGUAAUGGUAACGCGUCUCCCUUCUAAGGAGAAGACUGCGGGUUCGAGUCCCGUUUGGAACG [C33U A65U C66U]
4. GUUACGUGGGCGUAAUGGUAACGCGUCUCCCUCCUAAGGACAAGGCUGCGGGUUCGAGUCCCGUACGGAACG [C4A U8G G41C A45G]
5. GUUCCGUUGGCGUGAUGGUAACGCGUCUCCCUCCUACGGAGAAGACUGCGGGUUCGAGUCCCGUACGGACCG [A14G A37C A70C]
6. GUUCCGUUGGCGAAAUGGUAACGCGUCUCCCUCCUAAGGAGAUGACUGCAGGUGCGAGUCCCGUACGCAACG [U13A A43U G50A U54G G68C]
7. GUUCCGUUGGCCUAAUGGUAACGCGUCUCCCUCCUAAGGGGAAGACUGCGGGUUCGACUCGCGUCCGGAACG [G12C A40G G58C C61G A65C]

≤ 0.5
≤ 0.5
≤ 0.5
0.703
0.624
≤ 0.5
≤ 0.5
